# Tested on: OVCAR-4 ovarian
# protocol_notes: NCI tumour cell line growth inhibition, 48 h; in the data active = GI50 below about 0.43 µM; inactive = the rest
Outcome codes: Yes (active), No (inactive)

sample_smiles: O=C1c2ccc([N+](=O)[O-])cc2-c2c1c1ccccc1c(=O)n2CCCNCCCNCCCn1c2c(c3ccc([N+](=O)[O-])cc3c1=O)C(=O)c1ccccc1-2
classification: No
--
sample_smiles: Cc1ccc(/C(=N\N=C(N)N)c2ccccc2)cc1
classification: No
--
sample_smiles: C[C@H](NC(=O)[C@@H]1CSSC[C@@H](NC(=O)c2nc3ccccc3cc2O)C(=O)NCC(=O)N1C)c1ccccc1
classification: No
--
sample_smiles: Oc1ccc(C(c2ccc(O)cc2)c2ccc(Cl)cn2)cc1
classification: Yes
--
sample_smiles: COc1ccccc1/C=C/[N+](=O)[O-]
classification: No
--
sample_smiles: COc1ccc(N2Cc3cnc(Nc4ccccc4)nc3N([C@@H]3CC[C@@H](O)C3)C2=O)cc1
classification: No
--
sample_smiles: COc1ccc(Nc2ncc(Br)c(NCCCNC(=O)C3CCC3)n2)cc1
classification: No
--
sample_smiles: COc1cc(CCN)c2c(c1OC)SSSSS2
classification: No
--
sample_smiles: CN(C)c1ccc([O-])cc1.CN(C)c1ccc([O-])cc1.CN(C)c1ccc([O-])cc1.CN(C)c1ccc([O-])cc1.[Ti+4]
classification: No
--
sample_smiles: Cc1cc(/C=C\c2ccc3ccccc3[n+]2C)c(O)c2ncccc12
classification: Yes

* * *

A collection of compounds and their measured TGI
# Tested on: SF-539 CNS
# protocol_notes: NCI tumour cell line growth inhibition, 48 h

compound: CCc1c(Cc2cccc3ccccc23)n2c(nc1=O)SCC2OCCO (stereo not given)
readout_units: µM
value_qualifier: >
TGI: 100
//
compound: O=C(Nc1cccs1)c1c(O)[nH]c(=S)[nH]c1=O
readout_units: µM
value_qualifier: >
TGI: 100
//
compound: O=C(Nc1ccc(Cl)cc1Cl)C(=O)C(C(=O)c1ccc2ccccc2c1)C1OC(=O)c2ccccc21 (stereo not given)
readout_units: µM
value_qualifier: =
TGI: 11.7
//
compound: CCOC(=O)c1c(CN2CCNCC2)nc2ccccc2c1-c1ccccc1
readout_units: µM
value_qualifier: =
TGI: 34.8
//
compound: NC1CCCCC1.[O]=[Ge].[O]=[Ge].[O]=[Ge][OH].[O]=[Ge][OH]
readout_units: µM
value_qualifier: >
TGI: 100
//
compound: CC(CN(C)C)Nc1c2ccccc2nc2cccc([N+](=O)[O-])c12 (stereo not given)
readout_units: µM
value_qualifier: =
TGI: 1.31
//
compound: CCCCc1c2c(nc3c1CCc1cc4cc5c(nc4nc1-3)-c1nc3c(c(CCCC)c1CC5)CCCC3)CCCC2
readout_units: µM
value_qualifier: >
TGI: 100
//
compound: O=[N+]([O-])c1ccc2nc(-c3ccccn3)c(-c3ccccn3)nc2c1
readout_units: µM
value_qualifier: >
TGI: 100
//
compound: CC(C)=CCC[C@@H](C)C1=C(Nc2ccccc2Cl)C(O)=C(C)C(=O)C1=O
readout_units: µM
value_qualifier: =
TGI: 19.8
//
compound: COc1cc(CCN)c2c(c1OC)SSSSS2
readout_units: µM
value_qualifier: =
TGI: 2.62

* * *

# System: SK-MEL-5 melanoma
# protocol_notes: NCI tumour cell line growth inhibition, 48 h
measurement_label: TGI

molecule: COc1ccc(N(C)C(=O)N(C)c2ccc([N+](=O)[O-])cc2)cc1
endpoint_value: > 100 µM
--
molecule: Cc1ccc(C(=O)O)c(CC2Cc3c(C)cccc3C2=O)c1 (centres undefined)
endpoint_value: > 100 µM
--
molecule: O=Cc1ccccc1OCCOc1cc(OCCOc2ccccc2C=O)c(OCCOc2ccccc2C=O)cc1OCCOc1ccccc1C=O
endpoint_value: > 100 µM
--
molecule: CCOC(=O)C(NC(=O)N(C1=NCC(C)S1)C1CCCCC1)(OC)C(F)(F)F (centres undefined)
endpoint_value: 66.8 µM
--
molecule: CC1(C)CC[C@H](Nc2ncc(C(F)(F)F)c(-c3c[nH]c4c(P(C)(C)=O)c(C#N)ccc34)n2)CN1
endpoint_value: 2.27 µM
--
molecule: O=C(Nc1cccc([N+](=O)[O-])c1)C(=O)C(C(=O)c1ccccc1-c1ccccc1)C1OC(=O)c2ccccc21 (centres undefined)
endpoint_value: 30.7 µM
--
molecule: CC1CC#CCOC(=O)CCCC1=O (centres undefined)
endpoint_value: > 100 µM
--
molecule: C=CCN(/C=C1/C(=O)O[C@H](COC)[C@@]2(C)C1=C(O)C(=O)C1=C2[C@H](OC(C)=O)C[C@]2(C)C(=O)CC[C@@H]12)CC=C
endpoint_value: > 10 µM
--
molecule: O=CC(O)C(O)C(O)C(O)C(=O)NCCCCCCCCCCCCNC(=O)C(O)C(O)C(O)C(O)C=O (centres undefined)
endpoint_value: > 100 µM

* * *

# Tested on: UO-31 renal
# protocol_notes: NCI tumour cell line growth inhibition, 48 h

compound: Nc1nc(-c2ccccc2N=NN2CCCC2)nc2ccccc12
TGI: 3.43 µM
--
compound: COc1ccc(C2SCC(=O)N2NC(=O)C(O)c2ccccc2)cc1OC (stereo unspecified)
TGI: > 100 µM
--
compound: COc1ccccc1N=C(N)N/N=C/c1c[nH]c2ccccc12
TGI: 27.1 µM
--
compound: Clc1ccc(Cc2nc3ccccc3s2)c(Cl)c1
TGI: 30 µM
--
compound: CSC(CC(=O)O)C(=O)O (stereo unspecified)
TGI: > 100 µM
--
compound: c1ccc(CCN2CCc3[nH]c4ccccc4c3C2)cc1
TGI: 32 µM
--
compound: Oc1cc(O)c(Oc2cccc(O)c2O)c(O)c1
TGI: > 100 µM
--
compound: CN(C)c1nc(N(C)C)nc(N(C)C23CC4CC(CC(C4)C2)C3)n1
TGI: > 100 µM
--
compound: CCc1n(Cc2ccc3ccccc3n2)cc[n+]1Cc1ccc2ccccc2n1
TGI: > 100 µM
--
compound: COc1ccc2c(c1)C(=O)c1c-2n(CCCN=[N+]=[N-])c(=O)c2cc(N(C)C)ccc12
TGI: > 100 µM
--
compound: O=C(Nc1cccc([N+](=O)[O-])c1)C(=O)C(C(=O)c1ccccc1-c1ccccc1)C1OC(=O)c2ccccc21 (stereo unspecified)
TGI: 51.8 µM

* * *

A collection of molecules and their measured TGI
# Tested on: RPMI-8226 leukemia
# protocol_notes: NCI tumour cell line growth inhibition, 48 h

molecule: O=C1NC(=O)/C(=C/c2ccc(S(=O)(=O)N/N=C/c3ccc(Cl)cc3)cc2)N1
TGI: > 100 µM
--
molecule: O=C(c1ccc(Cl)cc1)c1ccc(OCCCCCCCCCCOc2ccc(C(=O)c3ccc(Cl)cc3)cc2)cc1
TGI: > 100 µM
--
molecule: COc1ccccc1/C=C1\CCC(CCN(C)C)(C2=CCCC2)C1=O (configuration not stated)
TGI: 41.3 µM
--
molecule: CO/C(=N\N=C\c1cccc(Cl)c1)c1ccncc1
TGI: > 10 µM
--
molecule: CCOC(=O)c1c(N2CCCC2)ncn(-c2ccccc2)c1=S
TGI: > 100 µM
--
molecule: Nc1nc(-c2ccccc2N=NN2CCCC2)nc2ccccc12
TGI: 6.46 µM
--
molecule: O=Nc1c(-c2c(O)[nH]c3ccc([N+](=O)[O-])cc23)[nH]c2ccc(O)cc12
TGI: 14.7 µM
--
molecule: CCCCCCCCCCCCCCN
TGI: > 100 µM
--
molecule: Cc1ccc(C(C)(C)C[P+](C)(c2ccccc2)c2ccccc2)cc1
TGI: 6.7 µM
--
molecule: COc1ccc(/C=c2\[nH]c3nc(=O)c(N4CCOCC4)c(N)n3c2=O)cc1
TGI: > 100 µM
--
molecule: Cc1ccc(S(=O)(=O)NCCNC2=CC(=O)c3nc4ccccc4c4ccnc2c34)cc1
TGI: > 100 µM
--
molecule: COC(=O)C(C(=O)C(=O)Nc1ccc(C(F)(F)F)cc1[N+](=O)[O-])c1csc(-n2nc(-c3ccccc3)cc2-c2ccccc2)n1 (configuration not stated)
TGI: > 100 µM

* * *

A collection of molecules and their measured TGI
# Test system: OVCAR-8 ovarian
# protocol_notes: NCI tumour cell line growth inhibition, 48 h
measurement_label: TGI

molecule: O=C1C(c2c[nH]c3ccccc23)=C(c2c[nH]c3ccccc23)C(=O)N1O
measurement_label: TGI
endpoint_value: > 25 µM

molecule: COC(=O)[C@H]1[C@@H](C(C)C)O[C@@H](C(C)C)O[C@H]1C(F)(F)F
measurement_label: TGI
endpoint_value: > 100 µM

molecule: CSC(CC(=O)O)C(=O)O (centres undefined)
measurement_label: TGI
endpoint_value: > 100 µM

molecule: Cc1ccc(C(C)(C)C[P+](C)(c2ccccc2)c2ccccc2)cc1
measurement_label: TGI
endpoint_value: > 100 µM
